test system: Fibroblast; experiment: Multiplex assay against human fibroblast; type: toxicity, cell-based; conditions: 48 h, 1 µM, compound concentration 1 uM, replicate 1
In this section, each of the compounds is paired with its reported Total Cell Count.
// print number alone

Before answering, review these 4 worked examples.
>  <COMPOUND>
CN1CCC[C@@H]1CCO[C@](C)(c1ccccc1)c1ccc(Cl)cc1.O=C(O)/C=C/C(=O)O [CLEMASTINE FUMARATE]

>  <Total Cell Count>
136

$$$$
>  <COMPOUND>
CN(C)CC#Cc1ccc(OCCCc2sc(N3CCc4cccc(C(=O)Nc5nc6ccccc6s5)c4C3)nc2C(=O)O)c(F)c1 [A-1155463]

>  <Total Cell Count>
106

$$$$
>  <COMPOUND>
CC(C)NCC(O)COc1ccc(CCOCC2CC2)cc1.Cl (configuration not stated) [BETAXOLOL HYDROCHLORIDE]

>  <Total Cell Count>
95

$$$$
>  <COMPOUND>
CN1CCN(c2ccc(OC(F)(F)F)c(Nc3ncc4c(n3)-c3c(c(C(N)=O)nn3CCO)CC4)c2)CC1 [ONVANSERTIB]

>  <Total Cell Count>
146

$$$$

Per the records, this compound ( Cc1csc2c(N[C@@H](C)CN3CCN(S(=O)(=O)c4ccc(Cl)c(Cl)c4)CC3)ncnc12 ) has Total Cell Count equal to 155

Value of Total Cell Count reported for the compound Cc1c(-c2ccc(O)cc2)n(Cc2ccc(OCCN3CCCCCC3)cc2)c2ccc(O)cc12 [BAZEDOXIFENE] is 115

Documented Total Cell Count of CN(C)C(=O)N[C@H]1CC[C@H](CCN2CCN(c3cccc(Cl)c3Cl)CC2)CC1.Cl [CARIPRAZINE HYDROCHLORIDE] : 117

---

system: HEK-293T; test: Multiplex assay against HEK293T; format: toxicity, cell-based; conditions: human, 12 h, 10 µM, compound concentration 10 uM, replicate 1
RECORDED ENDPOINT: Population Mitotic Cells (%)
I only need the number, in %, no unit after it.

Solved cases below.
>  <COMPOUND>
CN1CCN(CCOc2cc(OC3CCOCC3)c3c(Nc4c(Cl)ccc5c4OCO5)ncnc3c2)CC1 [SARACATINIB]

>  <Population Mitotic Cells (%)>
27

$$$$
>  <COMPOUND>
CN1CCC[C@@H]1CCO[C@](C)(c1ccccc1)c1ccc(Cl)cc1.O=C(O)/C=C/C(=O)O [CLEMASTINE FUMARATE]

>  <Population Mitotic Cells (%)>
7

$$$$
>  <COMPOUND>
Cc1csc2c(N[C@@H](C)CN3CCN(S(=O)(=O)c4ccc(Cl)c(Cl)c4)CC3)ncnc12

>  <Population Mitotic Cells (%)>
20

$$$$
>  <COMPOUND>
CN1CCN(c2ccc(OC(F)(F)F)c(Nc3ncc4c(n3)-c3c(c(C(N)=O)nn3CCO)CC4)c2)CC1 [ONVANSERTIB]

>  <Population Mitotic Cells (%)>
32

$$$$
>  <COMPOUND>
COc1cccc([C@@H](C)NCCCc2ccccc2Cl)c1.Cl [TECALCET HYDROCHLORIDE]

>  <Population Mitotic Cells (%)>
19

$$$$
>  <COMPOUND>
COc1ncc(-c2ccc3nccc(-c4ccnnc4)c3c2)cc1NS(=O)(=O)c1ccc(F)cc1F [OMIPALISIB]

>  <Population Mitotic Cells (%)>
37

$$$$

GET /value?item= C=CC(=O)Nc1ccc2ncnc(Nc3ccc(OCc4cccc(F)c4)c(Cl)c3)c2c1.Cc1ccc(S(=O)(=O)O)cc1 &field=Population Mitotic Cells (%) returns 48

Population Mitotic Cells (%) recorded for this compound, Cc1cc(C)cc(-c2cnc3cc(Cl)c(-c4cccc(O)c4)cc3c2OCCCN)c1 , is 29
